# System: SW-620 colon
# test_name: NCI-60 one-dose screen, 48 h (100 = growth as untreated, 0 = no growth, -100 = all killed)
# condition_description: 10 µM
Compounds without any hit were thinned out: in the full panel of roughly 83,000, 20% have a hit.
readout_label: growth (%)
Report only the number, with the unit % understood.

O=C(/C=C/c1cccc(B(O)O)c1)c1cccc(B(O)O)c1    -41.3
C=CCN(CC=C)C(=O)[C@H](CC)[C@@H]1CC[C@@H](C)[C@@H]([C@H](C)[C@@H](O)[C@@H](C)C(=O)[C@H](CC)C2O[C@]3(C=CC(=O)[C@]4(CC[C@@](C)([C@H]5CC[C@](O)(CC)[C@H](C)O5)O4)O3)[C@H](C)C[C@@H]2C)O1 (stereo not given in full)    24.8
COc1cc(-c2nc3ccccc3o2)cc(CN2CCCCC2)c1O    64.6

Missing value: growth, SW-620 colon, entry COc1ccccc1N1CCCSC1=Nc1ccccc1 . Fill in?
103

Provide the documented growth with SW-620 colon as the system for Cc1nc2n(c(=O)c1CCN1CCC(c3noc4cc(F)ccc34)CC1)CCC[C@@H]2O
101

Write down the reported growth of OCCn1cccn1 , test system: SW-620 colon.
101

Quick check: growth on SW-620 colon, item COc1ccc(C2=Cn3c(CCC(=O)c4nc5ccccc5[nH]4)nnc3SC2)cc1 ?
129

Recall the recorded growth for NC1=CC(=O)C(=O)c2cccnc21 with SW-620 colon and state it.
73.8

====

Below: a set of entries, each annotated with reported growth.
# Tested on: EKVX NSCLC
# test_name: NCI-60 one-dose screen, 48 h (100 = growth as untreated, 0 = no growth, -100 = all killed)
# condition_description: 10 µM
This is part of a sample that, as a whole, favours compounds with a hit. Of some 83,000 tested, about 20% had one in any assay.
Number only, in %; omit the unit.

A selection of reference data follows.
CCN1CCN(CCC(=O)Nc2cccc(-n3cc(-c4ccncc4)c(-c4ccc(Cl)c(OC)c4)n3)c2)CC1    54.5
Cc1c2cnccc2c(C)c2c1oc1ccccc12    38.3
N#CCc1csc(Cc2ccccc2)n1    105
NS(=O)(=O)c1ccc(Br)cc1    90.3
COc1ccc(-c2nn(-c3cccc(Cl)c3)cc2-c2cc(-c3ccccc3)[nH]c(=O)c2C#N)cc1    57.2

growth lookup needed for Nc1ccc(CC[C@H]2CCC/C=C/[C@@H]3C[C@H](O)C[C@H]3[C@H](O)/C=C/C(=O)O2)cc1 , thanks.
8.9

Endpoint output: growth of CC(=O)COc1ccc(Cl)cc1Cl . Value?
93

Which growth is listed for CCOC(=O)c1cc(C(=O)c2cc(OC)c(OC)c(OC)c2)n2ccc(-c3cc[n+](CC(=O)c4cc(OC)c(OC)c(OC)c4)cc3)cc12 ?
107

Return reported growth; argument: COc1ccc(C(c2ccc(OCCN(C)C)cc2)c2cc3ccccc3c3ccccc23)cc1 (stereo not given)
56.6

Which measured growth value corresponds to COc1ccc(Cl)cc1Nc1nc(C(F)(F)F)ccc1C(=O)N/N=C/c1cc(OC)c(OC)c(OC)c1 ?
32.6

====

# Tested on: CAKI-1 renal
# test_name: NCI-60 one-dose screen, 48 h
# condition_description: 10 µM
Compounds without any hit were thinned out: in the full panel of roughly 83,000, 20% have a hit. Active and inactive are the calls of the source. How the source made its calls: active means growth percent below 10; inactive means the rest.
The categories you may choose from are Yes = active, No = inactive

Before answering, review these 5 worked examples.
Oc1cccc(-c2nc3sccn3c2-c2ccncn2)c1    No
COc1cc2cc(Oc3ccc(NC(=O)c4ccccc4)cc3)c(C)nc2cc1OC    No
OCCn1cccn1    No
CCN1C(=O)CC(SC2CC(=O)N(CC)C2=O)C1=O (stereo unspecified)    No
OCC1OC(n2ccc3c(NO)ncnc32)C(O)C1O (stereo unspecified)    Yes

Outcome logged for COc1ccc(C(=O)N/N=C/c2cc(C(F)(F)F)ccc2Cl)cc1 in this assay:
No

Just curious, what result did Cc1c[nH]c(=O)n(Cc2nnc(CCC(=O)c3nc4ccccc4[nH]3)o2)c1=O get here?
No

Hey, what did the test say about COc1ccc(C(c2ccc(OCCN(C)C)cc2)c2cc3ccccc3c3ccccc23)cc1 (stereo unspecified) ?
No

Hi, sorry to bother you, what did the test record for Cc1ccc(/C=C/C(=O)C(=O)/C=C/c2ccc(C)cc2)cc1 ?
No

Assay outcome for C/C(=C/CCC(C)[C@@H]1CC[C@]2(C)C3=C(CC[C@@]12C)[C@@]1(C)CCC(=O)C(C)(C)[C@@H]1CC3)C(=O)O (stereo partly specified) : what was it?
Yes

What outcome does the record of this test show for CC1(C)N=C(N)N=C(N)N1c1cccc(C#N)c1 ?
No

====

# System: A549/ATCC NSCLC
# test_name: NCI-60 one-dose screen, 48 h
# condition_description: 10 µM
Compounds without any hit were thinned out: in the full panel of roughly 83,000, 20% have a hit. Calls of active or inactive are those of the source. Rule for the calls: active = growth percent below 10; inactive = the rest.
Select the correct class. Options are active, inactive and nothing else.

COc1cc(-c2nn(-c3ccc(NC(=O)NCCCNC(=O)c4ccccc4)cc3)cc2-c2ccncc2)ccc1Cl    inactive
COc1cc2cc(Oc3ccc(NC(=O)Nc4ccc(C(F)(F)F)cc4)cc3)c(C)nc2cc1OC    inactive
C=CCN(CC=C)C(=O)[C@H](CC)[C@@H]1CC[C@@H](C)[C@@H]([C@H](C)[C@@H](O)[C@@H](C)C(=O)[C@H](CC)C2O[C@]3(C=CC(=O)[C@]4(CC[C@@](C)([C@H]5CC[C@](O)(CC)[C@H](C)O5)O4)O3)[C@H](C)C[C@@H]2C)O1 (some centres undefined)    inactive
COc1ccc2nc3cc(Cl)ccc3c(NCCCNCCO)c2c1    active
COc1cc2c(cc1NC(=O)C(Cl)Cl)-c1ccc(NC(=O)C(Cl)Cl)cc1C2    active

Could you now look at the following molecule, please?
# fetch the recorded call for Cc1ccc(NCCN(C)CC(C)O)c2c(=O)c3ccccc3sc12 (centres undefined) here
inactive

====

Measured growth values are reported for all entries that follow.
# Tested on: SW-620 colon
# test_name: NCI-60 one-dose screen, 48 h (100 = growth as untreated, 0 = no growth, -100 = all killed)
# condition_description: 10 µM
# Experimental: Growth inhibition of the SW-620 human tumor cell line is measured as a screen for anti-cancer activity. Cells are grown in 96 well plates and exposed to the test compound for 48 hours. Compounds are tested at a single concentration, which is 10^-5 M for most compounds. The reported endpoint is percent growth (GI% or GIPRCNT), where numbers from 0 - 100% represent growth inhibition, and numbers from -100% - 0 represent cell death. For example, a value of 40 represents 60% growth inhibition. […]
About 83,000 compounds went through this panel and 20% of them were active in at least one assay; those are over-represented in the sample as a whole.
Field: numeric (%). Do not append units.

Use these answered entries as a reference point.
CCn1c(SCCc2ccccc2)nnc1-c1nn(-c2ccc(Cl)cc2Cl)c(-c2ccc(Cl)cc2)c1C    83.3
CC(C)CCN(CCC(C)C)CC(=O)Nc1ccc(S(=O)(=O)c2ccc(NC(=O)CN(CCC(C)C)CCC(C)C)cc2)cc1    -1.98

Quick one: growth for CCOC(=O)/C(=C(\C)N)C1CC(=O)NC1=O (stereo not given) ?
96.8

I have this compound here, COc1ccc2nc3cc(Cl)ccc3c(NCCCNCCO)c2c1 , and I need its recorded growth.
-2.84

Please look up its growth: N#Cc1c(-c2ccc(Cl)cc2)csc1NC(=O)Nc1ccc(Cl)c(C(F)(F)F)c1
11.1

Give the measured growth of O=c1cn[nH]c2ccc(Br)cc12 .
103

Give its growth value. Item: CCNc1nc(C(F)(F)F)nc2c1sc(=S)n2-c1ccccc1
106

Entry Clc1ccc2c(c1)C(N1CCNCC1)=Nc1ccccc1O2 has what growth?
67

Given OC[C@H]1OC([S-])[C@H](O)[C@@H](O)[C@@H]1O.[Au+] (stereo not given in full) , state its recorded growth.
101

Need growth, item Cc1cc(Cl)ccc1Nc1nc(C(F)(F)F)ccc1C(=O)N/N=C/c1cccc(O)c1
27.8

====

Recorded growth values for a group of molecules are listed next.
# Test system: SF-295 CNS
# test_name: NCI-60 one-dose screen, 48 h (100 = growth as untreated, 0 = no growth, -100 = all killed)
# condition_description: 10 µM
Compounds without any hit were thinned out: in the full panel of roughly 83,000, 20% have a hit. Active and inactive are the calls of the source. How the source made its calls: active means growth percent below 10; inactive means the rest.

CN(C)c1nc(N)c2nccnc2n1    84.4% (inactive)

Lab note: need growth with SF-295 CNS for entry O=c1oc2c(cc1-c1ccc(F)cc1)C(O)Oc1ccccc1-2 (stereo not given) , please look it up.
84.2% (inactive)

Find the measured growth: item CNS(=O)(=O)Oc1ccc(-c2ccc3occc3c2)cc1 , target or system SF-295 CNS.
92.9% (inactive)

Notebook entry, SF-295 CNS assay: growth of Nc1ccn(Cc2nnc(CCC(=O)c3nc4ccccc4[nH]3)o2)c(=O)n1 = ?
79.8% (inactive)

Fill in the recorded growth for this molecule, with SF-295 CNS as test system: NS(=O)(=O)Oc1ccc2c(ccn2C(=O)C23CC4CC(CC(C4)C2)C3)c1
97.8% (inactive)

Any idea what growth came out for NC1=NC(c2ccccc2)C2=C(N1)/C(=C/c1ccccc1)CCC2 (stereo not given) on SF-295 CNS?
95% (inactive)

I'm curious: which growth was measured for CCCCN(CCCC)C(=O)[C@H](CC)[C@@H]1CC[C@@H](C)[C@@H]([C@H](C)[C@@H](O)[C@@H](C)C(=O)[C@H](CC)C2O[C@]3(C=C[C@@H](O)[C@]4(CC[C@@](C)([C@H]5CC[C@](O)(CC)[C@H](C)O5)O4)O3)[C@H](C)C[C@@H]2C)O1 (stereo not given in full) tested on SF-295 CNS?
-10.4% (active)

From: PubChem BioAssay (NCI)
